test: VP16 transactivation reporter inhibitors, counter-screen for LRH-1 inverse agonist project, cell-based, luminescence, high throughput (AID 651615); details: Gal4-VP16 luciferase reporter cells, at 3.6 µM
Active and inactive are the calls of the source. Rule as the data show it: active = inhibition above about 33%; inactive = the rest.
Output constraint: value belongs to yes = active, no = inactive

Recorded test outcome, item `COc1ccc2c(/C=C/c3cc[n+](C)cc3)c[nH]c2c1`
yes

----------
biological target: Nuclear receptor subfamily 5 group A member 2 (Homo sapiens) (UniProt O00482); test: LRH-1 (NR5A2) inverse agonists, retest, confirmation, cell-based, luminescence (AID 651613); details: cell-based LRH-1 luciferase reporter, inverse agonism; at 3.6 µM; hits give high values;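 also: HEK293T cells co-transfected with LRH-1 and StAR promoter luciferase reporter; 0% = vehicle wells and 100% = parental cells lacking receptor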
Sequence (O00482 whole entry, looked up): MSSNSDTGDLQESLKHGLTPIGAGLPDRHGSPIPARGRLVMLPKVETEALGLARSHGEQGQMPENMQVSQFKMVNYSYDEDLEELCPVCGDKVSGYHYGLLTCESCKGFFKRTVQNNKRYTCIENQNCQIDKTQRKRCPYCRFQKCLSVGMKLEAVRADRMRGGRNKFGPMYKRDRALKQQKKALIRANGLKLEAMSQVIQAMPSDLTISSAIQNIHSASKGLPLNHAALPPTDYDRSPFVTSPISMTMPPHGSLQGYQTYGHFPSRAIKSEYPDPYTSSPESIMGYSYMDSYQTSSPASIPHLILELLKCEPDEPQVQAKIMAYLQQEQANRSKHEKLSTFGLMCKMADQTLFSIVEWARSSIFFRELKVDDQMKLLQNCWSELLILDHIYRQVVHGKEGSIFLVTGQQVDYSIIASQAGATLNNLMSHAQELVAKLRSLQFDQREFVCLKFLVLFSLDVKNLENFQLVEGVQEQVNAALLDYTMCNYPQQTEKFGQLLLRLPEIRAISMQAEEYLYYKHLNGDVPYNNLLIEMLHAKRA
Observation type: inhibition (%)
Only the number, expressed in %, is required.

Example entries and their recorded answers appear below.
[
  {
    "Compound": "Cc1cc(C(=O)COC(=O)c2ccccc2O)c(C)n1Cc1cccs1",
    "inhibition / %": 59
  },
  {
    "Compound": "O=C(c1c(F)c(F)c(F)c(F)c1F)N1CCN(c2cccc(C(F)(F)F)c2)CC1",
    "inhibition / %": 49.5
  },
  {
    "Compound": "Nc1nc2c(nnn2C2CC(O)C(CO)O2)c(=O)[nH]1 (stereo unspecified)",
    "inhibition / %": 53.9
  },
  {
    "Compound": "O=C(Cc1ccc(Cl)cc1Cl)Nc1ccncc1Cl",
    "inhibition / %": 65.9
  }
]

Notebook entry, Nuclear receptor subfamily 5 group A member 2 (Homo sapiens) (UniProt O00482) assay: inhibition of `S=C(NCCc1ccccc1)Nc1cccc2cnccc12` = ?
45.1

And for `O=c1[nH]c(Nc2ccc3c(c2)OCCO3)nnc1Cc1ccccc1` ?
59.5

And for `O=C(N/N=C/c1ccc[nH]1)c1ccc(COc2cccc3cccnc23)cc1` ?
109

And for CC(N)C(=O)NC(CO)C(O)C(N)C=O (stereo unspecified) ?
56.3

And for `COc1ccc(NC(=O)CSc2nc(N)c(-c3ccccc3)c(=O)[nH]2)cc1` ?
63.2

And for `COc1ccc(CCNC(=O)CN2C(=O)C3(OCCCO3)c3ccccc32)cc1OC` ?
45.7

And for `CCOc1ccccc1-n1c(SCC(=O)Nc2ccccc2C(=O)O)nc2ccccc2c1=O` ?
-6.48
